The measured values listed here are drawn from ChEMBL document CHEMBL2029328.

- test.target: Estrogen receptor beta (Homo sapiens, UniProt Q92731)
- Sequence (Q92731 whole entry): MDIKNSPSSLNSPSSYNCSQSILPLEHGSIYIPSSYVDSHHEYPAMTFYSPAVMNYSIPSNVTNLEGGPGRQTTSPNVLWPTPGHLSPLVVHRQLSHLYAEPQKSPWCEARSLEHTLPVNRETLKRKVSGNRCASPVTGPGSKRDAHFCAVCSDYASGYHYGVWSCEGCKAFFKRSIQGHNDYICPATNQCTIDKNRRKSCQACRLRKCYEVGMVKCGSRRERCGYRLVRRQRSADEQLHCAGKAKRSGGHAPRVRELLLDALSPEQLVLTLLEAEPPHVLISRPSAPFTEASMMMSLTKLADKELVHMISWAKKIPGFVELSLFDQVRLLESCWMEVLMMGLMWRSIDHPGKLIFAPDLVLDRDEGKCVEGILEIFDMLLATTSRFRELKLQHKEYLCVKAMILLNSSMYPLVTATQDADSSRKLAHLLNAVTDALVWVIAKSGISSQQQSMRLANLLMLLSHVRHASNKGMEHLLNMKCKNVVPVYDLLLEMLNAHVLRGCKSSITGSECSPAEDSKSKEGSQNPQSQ
test.readout: EC50 (nM)
Report only the number, with the unit nM understood.

GET EC50 | system: Estrogen receptor beta (Homo sapiens, UniProt Q92731) | item: Cc1cc(O)ccc1C1=C(c2ccc(O)cc2C)[C@H]2[C@H]3C(=O)N(c4ccccc4)C(=O)[C@H]3[C@@H]1[S+]2[O-] (mixture of isomers) 800

----------
Each record here notes measured Activity.
- test.target: UniProtKB Q92731
- protocol.notes: Agonist activity at human ERbeta expressed in HepG2 cells up to 10^-5 M after 24 hrs by luciferase reporter gene assay relative to E2
- Assay type: functional, cell-based
Report only the number, with the unit % understood.

{"columns": ["compound", "reported"],
 "data": [
  ["Cc1cc(C2=C(c3ccc(O)c(C)c3)[C@H]3[C@@H](S(=O)(=O)Oc4cccc5ccccc45)C[C@@H]2[S+]3[O-])ccc1O (relative stereo)", 10],
  ["Cc1cc(O)ccc1C1=C(c2ccc(O)cc2C)[C@H]2[C@@H](S(=O)(=O)Oc3ccc(Br)cc3)C[C@@H]1[S+]2[O-] (relative stereo)", 100]
]}

Read the next record carefully.
Report Activity for Cc1cc(O)ccc1C1=C(c2ccc(O)cc2C)[C@H]2[C@@H](S(=O)(=O)Oc3ccccc3)C[C@@H]1[S+]2[O-] (relative stereo) 66

----------
- test.target: Estrogen receptor beta (Homo sapiens)
- protocol.notes: Displacement of [3H]estradiol from human ERbeta after 18 to 24 hrs
test.readout: RBA (%)
Report only the number, with the unit % understood.

Examples with answers:
{"columns": ["compound", "RBA / %"],
 "data": [
  ["Cc1cc(C2=C(c3ccc(O)c(C)c3)[C@H]3[C@@H](S(=O)(=O)Oc4ccc(O)cc4)C[C@@H]2[S+]3[O-])ccc1O (relative stereo)", 0.009],
  ["Cc1cc(O)ccc1C1=C(c2ccc(O)cc2C)[C@H]2[C@@H](S(=O)(=O)Oc3cccc4ccccc34)C[C@@H]1[S+]2[O-] (relative stereo)", 0.18],
  ["Cc1cc(O)ccc1C1=C(c2ccc(O)cc2C)[C@H]2[C@@H](S(=O)(=O)Oc3ccccc3Br)C[C@@H]1[S+]2[O-] (relative stereo)", 0.07]
]}

GET RBA | system: Estrogen receptor beta (Homo sapiens) | item: O=S(=O)(Oc1ccc(O)cc1)[C@H]1C[C@H]2C(c3ccc(O)cc3)=C(c3ccc(O)cc3)[C@@H]1[S+]2[O-] (relative stereo) 0.071

GET RBA | system: Estrogen receptor beta (Homo sapiens) | item: O=S(=O)(Oc1ccc(O)cc1)[C@H]1C[C@H]2C(c3ccccc3)=C(c3ccccc3)[C@@H]1[S+]2[O-] (relative stereo) 0.008

GET RBA | system: Estrogen receptor beta (Homo sapiens) | item: Cc1cc(C2=C(c3ccc(O)c(C)c3)[C@H]3[C@@H](S(=O)(=O)Oc4ccccc4F)C[C@@H]2[S+]3[O-])ccc1O (relative stereo) 0.01

----------
- test.target: Estrogen receptor (Homo sapiens) (UniProt P03372)
- Sequence (whole entry): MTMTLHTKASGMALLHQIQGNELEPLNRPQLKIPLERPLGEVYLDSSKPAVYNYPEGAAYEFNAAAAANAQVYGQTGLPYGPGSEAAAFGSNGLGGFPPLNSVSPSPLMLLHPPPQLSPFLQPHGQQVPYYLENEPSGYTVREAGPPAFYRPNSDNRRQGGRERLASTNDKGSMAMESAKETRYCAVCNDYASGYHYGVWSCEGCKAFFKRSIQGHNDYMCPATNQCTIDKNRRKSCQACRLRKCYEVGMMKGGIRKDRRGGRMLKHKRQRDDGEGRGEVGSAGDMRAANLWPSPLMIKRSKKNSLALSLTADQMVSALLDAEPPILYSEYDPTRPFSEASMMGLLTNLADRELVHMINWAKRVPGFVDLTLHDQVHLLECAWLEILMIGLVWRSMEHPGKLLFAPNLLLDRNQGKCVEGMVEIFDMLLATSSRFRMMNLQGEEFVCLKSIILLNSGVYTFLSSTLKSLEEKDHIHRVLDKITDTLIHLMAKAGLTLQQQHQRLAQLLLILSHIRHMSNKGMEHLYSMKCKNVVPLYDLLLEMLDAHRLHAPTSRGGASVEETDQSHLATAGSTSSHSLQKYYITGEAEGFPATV
- protocol.notes: Displacement of [3H]estradiol from human ERalpha after 18 to 24 hrs
Each record here notes measured RBA.
Report only the number, with the unit % understood.

Examples with answers:
{"columns": ["compound", "reported"],
 "data": [
  ["Cc1cc(C2=C(c3ccc(O)c(C)c3)[C@H]3[C@@H](S(=O)(=O)Oc4cccc5ccccc45)C[C@@H]2[S+]3[O-])ccc1O (relative stereo)", 0.236],
  ["Cc1cc(C2=C(c3ccc(O)c(C)c3)[C@H]3[C@@H](S(=O)(=O)Oc4ccccc4)C[C@@H]2[S+]3[O-])ccc1O (relative stereo)", 3.49],
  ["Cc1cc(O)ccc1C1=C(c2ccc(O)cc2C)[C@H]2[C@@H](S(=O)(=O)Oc3ccc(Br)cc3)C[C@@H]1[S+]2[O-] (relative stereo)", 3.37],
  ["CCOC(=O)[C@@H]1[C@H](C(=O)OCC)[C@@H]2C(c3ccc(O)cc3)=C(c3ccc(O)cc3)[C@H]1[S+]2[O-] (some centres not stated)", 0.022]
]}

Read the next record carefully.
Report RBA for COc1ccc(OS(=O)(=O)[C@H]2C[C@H]3C(c4ccc(O)cc4C)=C(c4ccc(O)cc4C)[C@@H]2[S+]3[O-])cc1 (relative stereo) 0.741
